EXPERIMENTAL_SYSTEM: fluo-Aβ1-40 (Homo sapiens)
Construct: added 100 nM of fluo-Aβ1-40 in 100 μl
Sequence (P05067 672-711): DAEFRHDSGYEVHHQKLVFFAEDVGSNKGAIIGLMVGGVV
EXPERIMENT_SUMMARY: Aβ Aggregation Assay (Synthaloid plates, fluo-Aβ1-40)
Type: biochemical
TEST_SETTINGS: 10 μM test compound, 100 nM fluo-Aβ1-40, 2.5 hr at room temperature; higher % = greater effectiveness at preventing aggregation
Counter-ions that a name gives are not always drawn.
Assignment: determine reported Aβ aggregation inhibition (%) for the given compounds.
Answer with a number only, understood to be in %.

I would be grateful if you could share the reported Aβ aggregation inhibition (%) for O=C1OC2(CN3CCC2CC3)C(=O)N1c1cc(C(F)(F)F)cc(C(F)(F)F)c1 (stereo not drawn) [Compound 8, trifluoroacetate salt] .
0

I would be grateful if you could share the reported Aβ aggregation inhibition (%) for CCOC(=O)CN1C(=O)OC2(CN3CCC2CC3)C1=O (stereo not drawn) [Compound 30, hydrochloride] .
100

I would be grateful if you could share the reported Aβ aggregation inhibition (%) for COc1ccc(N2C(=O)OC3(CN4CCC3CC4)C2=O)c(C)c1 (stereo not drawn) [Compound 4, trifluoroacetate salt] .
95

I would be grateful if you could share the reported Aβ aggregation inhibition (%) for Cc1cc(O)ccc1N1C(=O)OC2(CN3CCC2CC3)C1=O (stereo not drawn) [Compound 19, trifluoroacetate salt] .
0

I would be grateful if you could share the reported Aβ aggregation inhibition (%) for O=C1OC2(CN3CCC2CC3)C(=O)N1c1cccc(O)c1 (stereo not drawn) [Compound 15, trifluoroacetate salt] .
50

I would be grateful if you could share the reported Aβ aggregation inhibition (%) for O=C1OC2(CN3CCC2CC3)C(=O)N1c1cc(Cl)ccc1Cl (stereo not drawn) [Compound 12, trifluoroacetate salt] .
85

I would be grateful if you could share the reported Aβ aggregation inhibition (%) for CCOC(=O)c1cccc(N2C(=O)OC3(CN4CCC3CC4)C2=O)c1 (stereo not drawn) [Compound 13, trifluoroacetate salt] .
100

I would be grateful if you could share the reported Aβ aggregation inhibition (%) for N=C1CC2(CN3CCC2CC3)OC(=O)N1c1cccc(Cl)c1 (stereo not drawn) [Compound 108, trifluoroacetate salt] .
70

I would be grateful if you could share the reported Aβ aggregation inhibition (%) for O=C1OC2(CN3CCC2CC3)C(=O)N1c1cccc(Cl)c1 (stereo not drawn) [Compound 10, trifluoroacetate salt] .
50

I would be grateful if you could share the reported Aβ aggregation inhibition (%) for Cc1ccc(C)c(N2C(=O)OC3(CN4CCC3CC4)C2=O)c1 (stereo not drawn) [Compound 11, trifluoroacetate salt] .
0

I would be grateful if you could share the reported Aβ aggregation inhibition (%) for N=C1CC2(CN3CCC2CC3)OC(=O)N1c1cc(Cl)cc(Cl)c1 (stereo not drawn) [Compound 107, trifluoroacetate salt] .
30

I would be grateful if you could share the reported Aβ aggregation inhibition (%) for Cc1cccc(N2C(=O)OC3(CN4CCC3CC4)C2=O)c1C (stereo not drawn) [Compound 27, trifluoroacetate salt] .
35

I would be grateful if you could share the reported Aβ aggregation inhibition (%) for O=C1OC2(CN3CCC2CC3)C(=O)N1c1ccc(O)cc1 (stereo not drawn) [Compound 18, trifluoroacetate salt] .
0

I would be grateful if you could share the reported Aβ aggregation inhibition (%) for O=C1OC2(CN3CCC2CC3)C(=O)N1c1ccc(Cl)c(Cl)c1 (stereo not drawn) [Compound 5, trifluoroacetate salt] .
98

I would be grateful if you could share the reported Aβ aggregation inhibition (%) for COc1ccc(N2C(=N)CC3(CN4CCC3CC4)OC2=O)cc1 (stereo not drawn) [Compound 100, trifluoroacetate salt] .
48
